Data provenance: the RNAGym collection of RNA variant scans (doi:10.1093/molbev/msab373)

B1: Azoarcus group I ribozyme (parent)
chain: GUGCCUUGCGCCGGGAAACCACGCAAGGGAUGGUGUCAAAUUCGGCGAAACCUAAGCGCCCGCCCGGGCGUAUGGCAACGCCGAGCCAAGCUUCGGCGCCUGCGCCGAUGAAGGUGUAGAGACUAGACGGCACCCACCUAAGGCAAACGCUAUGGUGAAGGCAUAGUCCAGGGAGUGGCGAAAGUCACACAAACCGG

# Variants of: B1
# experimental_details: reverse-splicing fitness (ratio to wild type); higher = more active; in vitro selection; Mg2+ level not given

| mutant_name | reverse-splicing fitness |
| --- | --- |
| A111G C150A C169A U176C | 0.0177 |
| C82G A111U A120U A145C C169A U176G | 0.00205 |
| C82G A111C A120U A145C C150A U176C | 0.00361 |
| C82U A111U A120U C150G C169U U176A | 0.00294 |
| A111C A145U C150G C169U U176G | 0.00683 |
| C82U A111G A120G C150G C169U | 0.00822 |
| C82U A120U A145C U176G | 0.011 |
| C82G A111G A120U C150A C169U U176A | 0.00523 |
| C82G A111U A145U C150U C169G | 0.00884 |
| C82A A111C A120C C169G U176C | 0.0233 |
| C82U A111U A120C C150G C169A U176G | 0.00603 |
| C82A A111G A145G C169G U176G | 0.00515 |
| A111U A120G A145U U176C | 0.0483 |
| C82U A120C A145G C150G U176C | 0.0157 |
| A111U A120U A145U C150U C169U U176C | 0.00988 |
| C82G A111C A145U C169G U176A | 0.014 |
| C82G A120C A145G C150A C169U U176A | 0.0145 |
| C82G A120C C150G C169G U176C | 0.00574 |
| C82G A111G A120C A145G C150U C169A U176A | 0.0156 |
| A111G A120C A145G C150U C169A U176A | 0.016 |
| C82A A111U A120C A145G C150A C169G U176A | 0.0204 |
| C82U A111G A145G U176A | 0.201 |
